Test system: HL-60
Experiment: NCI tumour cell line growth inhibition, 48 h
Activity calls are given as the source filed them. Rule as the data show it: active = GI50 up to about 1.1 µM and inactive = higher.
Mark one answer only. Choices: yes (1) for active, no (0) for inactive

Field: outcome | Entry: C/C(=N/NC(=O)C[N+](C)(C)C)C(CN(C)C)C(=O)Nc1ccccc1 (configuration not stated)
no (0)

What classification did Cc1ccc2c(=O)cc(-c3cccc(F)c3)[nH]c2n1 end up with in this test?
yes (1)

Field: outcome | Entry: COc1ccc(-c2nc3cc(F)ccc3s2)cc1O
no (0)

Query: recorded result category for O=c1oc2c(ccc3ccccc32)cc1C1=CSC2=NCCN12 in this test
no (0)

Fill in: this test's call for COc1cccc2c1C(=O)c1c(O)c3c(c(O)c1C2=O)CC(O)(C(=O)CO)CC3OC1CC(N)C(I)C(C)O1 (configuration not stated) is ___
yes (1)

I would be grateful if you could indicate the recorded call for CCCC1N2CCCCC2[C@@H]2c3[nH]c4ccccc4c3CCN12 (some centres not stated) .
no (0)

Please share the test call associated with O=C1C2=C(SCCS2)C(=O)c2ccccc21 .
no (0)

---

Answer each item with its documented GI50.
Test system: Malme-3M
Assay: NCI tumour cell line growth inhibition, 48 h
Active and inactive are the calls of the source. Cut-off read from the data, not from the text of the source: active = GI50 up to about 1.1 µM and inactive = higher.

Lab book: GI50 of COC1/C=C\OC2(C)Oc3c(C)c(O)c4c(O)c(c(/C=N\OCCCc5ccccc5)c(O)c4c3C2=O)NC(=O)/C(C)=C\C=C/C(C)C(O)C(C)C(O)C(C)C(OC(C)=O)C1C (stereo not drawn) noted as 3.54 µM (inactive)

GI50 for [N-]=[N+]=NC1CC(n2ccc(N)nc2=O)OC1COP(=O)(O)OP(=O)(O)OP(=O)(O)O (stereo not drawn) is > 100 µM (inactive)

So for C/C(=N\NC(=S)NC(CCC(=O)O)C(=O)O)c1cnccn1 (stereo not drawn) , the logged GI50 turned out to be > 100 µM (inactive)

GI50 for Cc1cc(N(CCC#N)CCC#N)ccc1/C=C1N=C(/C=C\c2ccccc2)N(NC(=O)CC(=O)Nc2ccccc2Cl)C\1=O is > 100 µM (inactive)

# molecule O=C(Nc1ccccc1F)c1cc2ccc(O)cc2o/c1=N\c1cccc(C(F)(F)F)c1 ; its GI50 = 2.69 µM (inactive)

Consider Nc1nc(Cl)cc(NCC2(CO)CCC2)n1 . Its measured GI50 is > 100 µM (inactive)

The molecule identified as Cc1ccc(-c2c(C#N)c(-c3ccccc3)n(NS(=O)(=O)c3ccc(C)cc3)c(=O)c2C#N)cc1 registered its GI50 at 38.6 µM (inactive)

So, COc1ccc(/C=N\N2C(=O)Cc3ccccc32)cc1 ? Its GI50 was > 100 µM (inactive)

So, CC(C)(C)c1cc(OCc2nn3c(Cc4ccccc4)nnc3s2)c(Cl)cc1OCc1nn2c(Cc3ccccc3)nnc2s1 ? Its GI50 was 12 µM (inactive)

// field: GI50; key: COc1cc2oc3ccccc3c(=O)c2cc1CSc1ccccc1N ; value = 18.6 µM (inactive)

The measured GI50 associated with CCCC1N2CCCCC2[C@@H]2c3[nH]c4ccccc4c3CCN12 (stereo partly drawn) reads 25.8 µM (inactive)

get_value(item= N#Cc1c(-c2ccccc2)cc(-c2ccc(N)cc2)[nH]c1=O , readout=GI50) returns > 100 µM (inactive)

Value of measured GI50 for the entry [N-]=[N+]=CC(=O)OC1CCOCC1 : > 100 µM (inactive)

---

Tested on: HOP-62
Assay: NCI tumour cell line growth inhibition, 48 h
Active and inactive are the calls of the source. No stated cut-off is given here; in the data, active = GI50 up to about 1.1 µM and inactive = higher.
A correct response names exactly one class from Y (active), N (inactive)

I'd appreciate the recorded outcome for CC(C)=NOC(=O)CNC(=O)C(Cc1ccccc1)NC(=O)C(C)NC(=O)OC(C)(C)C (stereo unspecified) from this test.
N

Would you mind telling me which call this test gave CCNc1nc(N)c(C(=O)c2cccs2)s1 ?
N

GET /call?item= Cc1cccc(/C=N/NC(=S)N2CCCC2)n1 returns the recorded outcome of this test.
Y

Which outcome was assigned to Nc1nc2cc(COc3ccc(C(=O)O)cc3)ccc2nc1-c1ccccc1 in this test?
N

Record lookup: outcome of this test for Nc1nc(Cl)cc(NCC2(CO)CC(OCc3ccccc3)C2)n1 (stereo unspecified) ?
N

What outcome does the record of this test show for COC(=O)CNC(=O)c1cc(C)cc2c1Oc1c(cc(C)cc1C(=O)NCC(=O)OC)S2 ?
N

---

Tested on: XF498
Assay: NCI tumour cell line growth inhibition, 48 h
Calls of active or inactive are those of the source. No stated cut-off is given here; in the data, active = GI50 up to about 1.1 µM and inactive = higher.
The reply should name one outcome from active, inactive

Hi team, can someone confirm the assay call for CNS(=O)(=O)NNS(=O)(=O)c1ccc(OC)cc1 ?
inactive

What was the test verdict on COCC(=O)CP(=O)(OC)OC ?
inactive

Called result for NC(=S)N/N=C(\C(=O)Nc1ccc(Cl)c(Cl)c1)C1=NN(c2ccccc2)C(c2cccc([N+](=O)[O-])c2)CC1=O (configuration not stated)
inactive

Hi team, can someone confirm the assay call for Nc1c(S(=O)(=O)O)cc2cc(S(=O)(=O)O)ccc2c1/N=N/c1ccc(-c2ccc(/N=N/c3c(N)c(S(=O)(=O)O)cc4cc(S(=O)(=O)O)ccc34)c(S(=O)(=O)O)c2)cc1 ?
inactive

I'd appreciate the recorded outcome for O=C(O)CCc1nn2c(nc1=O)sc1ccc3ccccc3c12 from this test.
inactive

# lookup: test call for O=C(NN1C(=O)C(Cl)C1c1ccc([N+](=O)[O-])cc1)c1ccccc1O (configuration not stated)
inactive

Which outcome did this test record for the compound COC(=O)/C(=N\Nc1nnc(C)n1N)C(C#N)c1ccc(Cl)cc1 (configuration not stated) ?
inactive

Which outcome was entered for the compound O=C(Cc1ccccc1[N+](=O)[O-])C(CO)c1ccccc1[N+](=O)[O-] (configuration not stated) in this test?
inactive

Which result was noted for this compound in the test: CSc1nc(SC)c2cnn(CC3CO3)c2n1 (configuration not stated)
inactive

// return assay outcome for O=c1cccccc1NCCCCCCCCCNc1cccccc1=O
inactive

Could you check what this test reported for N#Cc1cc([N+](=O)[O-])ccc1NC(=O)C(=O)C(C(=O)/C=C/c1ccccc1)C1OC(=O)c2ccccc21 (configuration not stated) ?
inactive

Please share the test call associated with CC(=O)NNc1nc(C)c(C(=O)NNC(=O)C(=O)Nc2ccc([N+](=O)[O-])cc2[N+](=O)[O-])s1 .
inactive

Query: recorded result category for N#CC(C(=O)/C(=N\Nc1nc(S)nn1N)C(C#N)c1ccc(Cl)cc1)c1ccc(Cl)cc1 (configuration not stated) in this test
inactive

Check the results log: what was the call for O=C(O)[C@@H]1OCCOCCO[C@@H](C(=O)O)[C@H](C(=O)O)OCCOCCO[C@H]1C(=O)O ?
inactive

How did this test come out for c1ccc(C(c2ccccc2)[P+](c2ccccc2)(c2ccccc2)c2ccccc2)cc1 ?
active

For this compound, state the assay outcome: Cc1cccc2c(=O)cc(-c3ccccc3)[nH]c12
inactive

Look up the recorded call for CSc1nc(NC2OC(COC(C)=O)C(OC(C)=O)C(OC(C)=O)C2OC(C)=O)c(/N=C\C=N/c2c(NC3OC(COC(C)=O)C(OC(C)=O)C(OC(C)=O)C3OC(C)=O)nc(SC)n(C)c2=O)c(=O)n1C (configuration not stated) in this test.
inactive

---

System: SN12C
Test: NCI tumour cell line growth inhibition, 48 h
Calls of active or inactive are those of the source. Cut-off read from the data, not from the text of the source: active = GI50 up to about 1.1 µM and inactive = higher.
property-name: GI50

The measured GI50 associated with Cc1cnc2sn(-c3ccc([N+](=O)[O-])cc3)c(=O)c2c1 reads > 100 µM (inactive)

Memo: C[C@H]1CC[C@@]2(OC1)O[C@H]1C[C@H]3[C@@H]4CC[C@@H]5C[C@@H](OC6OC(CO)C(O)C(O)C6OC6OC(CO)C(O)C(O)C6O)CC[C@]5(C)[C@H]4CC[C@]3(C)[C@H]1[C@@H]2C (stereo not given in full) , reported GI50: 2.07 µM (inactive)

Summary for this compound, C=C(C(=O)O[C@H]1C/C(C)=C/CC/C(CO)=C/[C@H]2C(=O)OC(=C)[C@H]12)C(O)CO (stereo not given in full) : GI50 is 15.3 µM (inactive)

Note to self: GI50 recorded for CCOc1ccc(NC(=O)/C(CC(=O)c2c[n+]([O-])c3ccccc3[n+]2[O-])=N\OCCCc2ccccc2)cc1 was > 100 µM (inactive)

// recorded GI50 for CCOC(=O)NC(N(C)C(C(C)C)P(=O)(OCC)OCC)(C(F)(F)F)C(F)(F)F (stereo not given) : > 100 µM (inactive)

According to the records, this compound O=C1NN(c2ccccc2)C(=O)C2C3c4ccccc4C(c4ccccc43)C12 (stereo not given) displays GI50 of 77.1 µM (inactive)

Memo: O=C1CCCc2cc3c(cc21)CC1(C3)Cc2cc3c(cc2C1)C(=O)CCC3 , reported GI50: 4.46 µM (inactive)

Entry COc1ccccc1NC(=O)CC(=O)N1N=C(N2c3ccccc3Sc3ccccc32)CC1c1ccccc1 (stereo not given) ; GI50 = > 100 µM (inactive)

Notebook: CC1=CCC[C@H]2[C@](C)(CC3=CC(=O)C(Sc4ccccc4)=CC3=O)[C@@H](C)CC[C@]12C , GI50 read as 17.7 µM (inactive)

response.value for CCN1CCN(c2ccc(Nc3ccnc4ccc5nn(C)nc5c34)cc2)CC1 (field: GI50) = 10.7 µM (inactive)

So for Nc1c(S(=O)(=O)O)cc2cc(S(=O)(=O)O)ccc2c1/N=N/c1ccc(-c2ccc(/N=N/c3c(N)c(S(=O)(=O)O)cc4cc(S(=O)(=O)O)ccc34)c(S(=O)(=O)O)c2)cc1 , the logged GI50 turned out to be > 100 µM (inactive)

// field: GI50; key: COC(=O)c1ccc2c(c1)CC1(C2)Cc2cc3c(c(C(=O)OC)c2C1)CCCC3 (stereo not given) ; value = 50.1 µM (inactive)

Summary for this compound, CCC/C(=N/NC(=O)C(N)=O)C(CC)C(=O)CCC(=O)N(Cc1ccccc1)Cc1ccccc1 (stereo not given) : GI50 is > 100 µM (inactive)

Value of measured GI50 for the entry Cc1ccc(-c2c(C#N)c(-c3ccccc3)n(NS(=O)(=O)c3ccc(C)cc3)c(=O)c2C#N)cc1 : 82.6 µM (inactive)

Value of GI50 reported for the compound O=c1oc2c(ccc3ccccc32)cc1C1=CSC2=NCCN12 is 42.4 µM (inactive)

# GI50 (compound: OCCSCCCSCCO ) is > 100 µM (inactive)

Sure, the documented GI50 for c1ccc(CNc2nncc3[nH]cnc23)cc1 is > 100 µM (inactive)

The compound COc1cc2ccc3c4ccccc4cnc3c2cc1OC showed GI50 equal to > 100 µM (inactive)

For this compound ( CCOC(=O)CCC(NC(=O)c1ccc(NC(OC)c2nc3cc(C(F)(F)F)ccc3nc2-c2ccccc2)cc1)C(=O)OCC (stereo not given) ), measured GI50 is 14.5 µM (inactive)

GI50 for O=C(O)CSc1nnc2c3ccccc3c3ccccc3c2n1 is 38.9 µM (inactive)

# GI50 of C[C@@]1(O)C[C@@H](N2C(=O)O[C@@H](c3ccccc3)[C@H]2c2ccccc2)[C@@H]1COCc1ccccc1 = 17.4 µM (inactive)

The recorded GI50 for O=C(CCC(=O)Nc1ccc(Cl)cc1)CC(=O)c1ccc(F)cc1 is > 100 µM (inactive)

The measured GI50 associated with O=C1CCCC2=C1CC1=C(CCCC1=O)N2c1cccc2ccccc12 reads > 100 µM (inactive)

Note to self: GI50 recorded for Oc1ccc2ccccc2c1/N=N/c1ccc(F)cc1 was 42.7 µM (inactive)

Record summary for COc1ccc(-c2nc3cc(F)ccc3s2)cc1O : reported GI50 = 84.3 µM (inactive)

Lab note: CC(=O)NNc1nc(C)c(C(=O)NNC(=O)C(=O)Nc2ccc([N+](=O)[O-])cc2[N+](=O)[O-])s1 gave GI50 of > 100 µM (inactive)

Record CCc1nc(N)nc(N)c1-c1ccc(Cl)c([N+](=O)[O-])c1 . Reported GI50: 1.79 µM (inactive)

Entry under test: Cn1c(-c2cccs2)cc(-c2cccs2)c1-c1ccco1 . Its GI50 was > 94.6 µM (inactive)

Summary for this compound, O=[N+]([O-])c1cccc(-c2ncc3c(n2)-c2ccccc2C3)c1 : GI50 is > 100 µM (inactive)

Query C[N+]1(C)CCOC(O)(c2ccccc2)C1 (stereo not given) yields GI50 of > 100 µM (inactive)
